system: SNB-19; assay: Growth inhibition of human SNB19 cells assessed as cell growth at 10^-4 M by sulforhodamine B assay; assay type: functional; settings: read-out: Activity
In this section we review reported growth at 100 µM values for a set of molecules.

- Mol: "CC(C)=CC(=O)O[C@@H]1CC(C)(C)C[C@H]2C3=CC[C@@H]4[C@@]5(C)CCC(=O)C(C)(C)[C@@H]5CC[C@@]4(C)[C@]3(C)CC[C@@]12C(=O)O"
  Unit text: "%"
  growth at 100 µM: 7
- Mol: "C/C=C(/C)C(=O)O[C@@H]1CC(C)(C)C[C@H]2C3=CC[C@@H]4[C@@]5(C)CC[C@H](O)C(C)(C)[C@@H]5CC[C@@]4(C)[C@]3(C)CC[C@@]12C(=O)O"
  Unit text: "%"
  growth at 100 µM: -40
- Mol: "CC(C)=CC(=O)O[C@@H]1CC(C)(C)C[C@H]2C3=CC[C@@H]4[C@@]5(C)CC[C@H](O)C(C)(C)[C@@H]5CC[C@@]4(C)[C@]3(C)CC[C@@]12C(=O)O"
  Unit text: "%"
  growth at 100 µM: -62
- Mol: "CC1(C)C[C@@H](O)[C@]2(C(=O)O)CC[C@]3(C)C(=CC[C@@H]4[C@@]5(C)C/C(=C\\C=C\\c6ccccc6)C(=O)C(C)(C)[C@@H]5CC[C@]43C)[C@@H]2C1"
  Unit text: "%"
  growth at 100 µM: -91
- Mol: "C/C=C(/C)C(=O)O[C@@H]1CC(C)(C)C[C@H]2C3=CC[C@@H]4[C@@]5(C)CCC(=O)C(C)(C)[C@@H]5CC[C@@]4(C)[C@]3(C)CC[C@@]12C(=O)O"
  Unit text: "%"
  growth at 100 µM: 23
